targetSystem: T1, hK1 (human tissue kallikrein 1), recombinant (human, UniProt P06870 25-262)
T1 construct: Expressed in P. pastoris from KLK1 cDNA and purified; enzymatically active; also called KLK1; Recombinant (Pichia) Kallikrein
assayComment: SPR
assayMetric: koff (s⁻¹)
Write the number in s⁻¹ without appending the unit.

Field: example entries. Status: answers known.
M0138-B06 (Fab, V domains shown) VH: EVQLLESGGGLVQPGGSLRLSCAASGFTFSPYTMSWVRQAPGKGLEWVSGIYPSGGETWYADSVKGRFTISRDNSKNTLYLQMNSLRAEDTAVYYCAKNINLRYDILTGYFDFWGQGTMVTVSS VL: DIQMTQSPSSVSASVGDRVTITCRASQGISSWLAWYQQKPGKAPKLLIYAASSLQSGVPSRFSGSGSGTDFTLTISSLQPEDFATYYCQQANSFPLTFGGGTKVEIKR | 0.000829
M0110-D06 (Fab, V domains shown) VH: EVQLLESGGGLVQPGGSLRLSCAASGFTFSWYRMAWVRQAPGKGLEWVSYIGPSGGSTSYADSVKGRFTISRDNSKNTLYLQMNSLRAEDTATYYCARVGTFYGMDVWGQGTTVTVSS VL: DIQMTQSPSTLSASLGDRVIITCRASQGIRSWLAWYQQKPGKAPKLLIYAASSLQSGVPSRFSGSGSGTDFTLTISSLQPEDFATYYCQQSYSTPWTFGQGTKVEIKR | 0.0175

Value of measured koff for the entry M0117-A12 (Fab, V domains shown) VH: EVQLLESGGGLVQPGGSLRLSCAASGFTFSNYKMSWVRQAPGKGLEWVSGIYPSGGLTQYADSVKGRFTISRDNSKNTLYLQMNSLRAEDTAVYYCAKVGVWYGMDVWGQGTTVTVSS VL: DIQMTQSPGTLSLSPGDRATLSCRASQSVGSDYLAWYQQKPGQAPRLLIYGASSRATGIPDRFSGSGSGTDFTLTISRLEPEDFAVYYCQQYGSSLYTFGQGTKLEIKR : 0.00345

Given item M0138-E12 (Fab, V domains shown) VH: EVQLLESGGGLVQPGGSLRLSCAASGFTFSWYVMRWVRQAPGKGLEWVSSIYPSGGQTRYADSVKGRFTISRDNSKNTLYLQMNSLRAEDTAMYYCATGYSSTWGAFDIWGQGTMVTVSS VL: AQSALTQPASVSGSPGQSITISCSGTSSDVGAYYHVSWYQQHPGKAPKLMIYEVTNRPSGISNRFSGSKSGNTASLTISGLQADDEADYFCSSYTTSNTLVFGGGTKVTVLG , the value recorded as its koff is 0.00149

Notebook: M0115-F04 (Fab, V domains shown) VH: EVQLLESGGGLVQPGGSLRLSCAASGFTFSNYLMGWVRQAPGKGLEWVSSIGPSGGYTKYADSVKGRFTISRDNSKNTLYLQMNSLRAEDTAVYYCARGTGTTFFWGQGTLVTVSS VL: AQSALTQPPSVSVSPGQTVSITCSGDDLGGRHVSWFQQLSGQSPVLVIYQDDKRPSGIPERFSGSNSGNTATLTISGTQSVDEGDYYCLAWHNYKYVFGSGTTVTVLR , koff read as 0.0131

// recorded koff for M0117-C04 (Fab, V domains shown) VH: EVQLLESGGGLVQPGGSLRLSCAASGFTFSHYLMFWVRQAPGKGLEWVSSIWPSGGNTKYADSVKGRFTISRDNSKNTLYLQMNSLRAEDTAVYYCARPAYYYAMDVWGQGTTVTVSS VL: DIQMTQSPLSLSASVGDRVTITCRASQTFNNYLNWYQQKPGKAPKLLIYAASTLQSGVPSRFSGSGSGTDFTLTISSLQPEDFATYYCQQANSFPFTFGPGTKVDIKR : 0.00334

Recorded result, M0092-F08 (Fab, V domains shown) VH: EVQLLESGGGLVQPGGSLRLSCAASGFTFSHYPMIWVRQAPGKGLEWVSGIYSSGGTTKYADSVKGRFTISRDNSKNTLYLQMNSLRAEDTAVYYCARVGVWYGMDVWGQGTTVTVSS VL: DIQMTQSPATLSLSPGERATLSCGASQSVSSSYLAWYQQKPGLAPRLLIYDASSRATGIPDRFSGSGSGTDFTLTISSLQPEDFATYYCLHDYNFPFTFGPGTKVDIKR , koff: 0.00158

Record summary for M0097-F04 (Fab, V domains shown) VH: EVQLLESGGGLVQPGGSLRLSCAASGFTFSPYQMWWVRQAPGKGLEWVSSISSSGGLTRYADSVKGRFTISRDNSKNTLYLQMNSLRAEDMAVYYCARVKLNYYGSGSYSLDAFDIWGQGTNGHRLKRLHQGPIGLPASTLLQEH VL: AQYELTQPPSASGTPGQRVTISCSGSSSNIGSNYVHWYQQLPGTAPKLLIYRNNRRPSGVPDRFSGSKSGTSASLAISGLRSEDEADYYCAAWDDSLSGLVVFGGGTKLTVLGQPKAAP : reported koff = 0.000346

Value of koff reported for the binder M0132-H11 (Fab, V domains shown) VH: EVQLLESGGGLVQPGGSLRLSCAASGFTFSHYQMHWVRQAPGKGLEWVSRIRSSGGATSYADSVKGRFTISRDNSKNTLYLQMNSLRAEDTAVYYCARGGGYSYYFDYWGQGTLVTVSS VL: AQYELTQPPSASGTPGQRVTISCSGSSSNIGSNYVYWYQQLPGTAPKLLIYRNNQRPSGVPDRFSGSKSGTSASLAISGLRSEDEADYYCAAWDDSLSGHAVFGGGTQLTVLG is 0.00198

Sure, the documented koff for M0107-D05 (Fab, V domains shown) VH: EVQLLESGGGLVQPGGSLRLSCAASGFTFSNYHMQWVRQAPGKGLEWVSSIYPSGGFTRYADSVKGRFTISRDNSKNTLYLQMNSLRAEDTAVYYCARDGGQGGWGQGTLVTVSS VL: DIQMTQSPSTLSASVGDRVTITCRASQSISSWLAWYQQKPGKVPKLLIHAASTLQSGVPSRFSGSGSGTDFTLTISSLQPEDVATYYCQKYNSAPLTFGGGTKVEIKR is 0.003
